molecular target: human factor Xa (FXa) (Homo sapiens); assay: Measurement of factor Xa inhibition (chromogenic substrate); format: biochemical; conditions: factor Xa inhibition
endpoint_label: IC50 (nM)

- compound: "Cc1ccc(C(=O)NCC2CN(c3ccc(N4CCCC4=O)cc3)C(=O)O2)s1 (stereo not shown)"
  IC50 [nM]: 160
- compound: "O=C(NC[C@H]1CN(c2ccc(S(=O)(=O)N3CCC3)cc2)C(=O)O1)c1ccc(Cl)s1"
  IC50 [nM]: 840

I = NCC(=O)Nc1ccc(N2CC(CNC(=O)c3ccc(Cl)s3)OC2=O)cc1 (stereo not shown)
II = Cc1noc(C)c1C(=O)Nc1ccc(N2CC(CNC(=O)c3ccc(Cl)s3)OC2=O)cc1 (stereo not shown)
Qu. Of I and II , which carries the smaller reported IC50 figure? Output the label that corresponds to your choice.
Ans. II

1 = CC(C)(C)OC(=O)N1CC(=O)N(c2ccc(N3CC(CNC(=O)c4ccc(Cl)s4)OC3=O)cc2)C(=O)C1 (stereo not shown)
2 = CC(=O)Nc1ccc(N2CC(CNC(=O)c3ccc(Cl)s3)OC2=O)cc1 (stereo not shown)
Qu. Given 1 and 2 , report the one with the higher recorded IC50. Output the label that corresponds to your choice.
Ans. 1
(1: 2000 nM, 2: 1200 nM)

###

biological target: human factor Xa (FXa) (Homo sapiens, UniProt P00742); test: Measurement of factor Xa inhibition (chromogenic substrate); assay type: biochemical; settings: factor Xa inhibition
Sequence (P00742 235-488 limits assumed): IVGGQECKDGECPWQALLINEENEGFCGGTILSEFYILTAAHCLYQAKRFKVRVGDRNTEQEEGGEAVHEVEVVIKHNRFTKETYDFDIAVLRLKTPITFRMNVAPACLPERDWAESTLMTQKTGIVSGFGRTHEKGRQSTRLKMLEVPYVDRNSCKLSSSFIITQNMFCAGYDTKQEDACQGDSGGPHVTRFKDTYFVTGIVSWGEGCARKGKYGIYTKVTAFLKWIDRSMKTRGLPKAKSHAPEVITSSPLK
Sequence (P00742 41-179 partner limits assumed): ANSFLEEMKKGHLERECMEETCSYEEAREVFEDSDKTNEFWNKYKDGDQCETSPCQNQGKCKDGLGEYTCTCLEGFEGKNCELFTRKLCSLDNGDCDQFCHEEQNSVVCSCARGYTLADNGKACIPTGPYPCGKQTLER
pIC50: −log10 of the molar value.
endpoint_label: pIC50

1 = Nc1ccc(N2CC(CNC(=O)c3ccc(Cl)s3)OC2=O)cc1 (stereo not drawn)
2 = CN(C)S(=O)(=O)c1ccc(N2C[C@H](CNC(=O)c3ccc(Cl)s3)OC2=O)cc1
3 = O=C(NC[C@H]1CN(c2ccc(N3CCOCC3)c(Cl)c2)C(=O)O1)c1ccc(Cl)s1
Qu. With the 3 compounds above, produce a list ordered by ascending pIC50. Use the labels to give the requested order.
Ans. 1, 2, 3
